- Target Under Test: T1, phosphorylated ERK2 wild-type (human, UniProt P28482 1-360, phosphorylated at Thr185 and Tyr187)
- T1 construct: ERK2 (MAPK1), human, wild-type, phosphorylated on T185 and Y187 by co-expressed active MEK1; also called P-ERK2 wild-type; P-ERK2; not shown: His6, N-terminal, cleaved
- T1 sequence (P28482 whole entry): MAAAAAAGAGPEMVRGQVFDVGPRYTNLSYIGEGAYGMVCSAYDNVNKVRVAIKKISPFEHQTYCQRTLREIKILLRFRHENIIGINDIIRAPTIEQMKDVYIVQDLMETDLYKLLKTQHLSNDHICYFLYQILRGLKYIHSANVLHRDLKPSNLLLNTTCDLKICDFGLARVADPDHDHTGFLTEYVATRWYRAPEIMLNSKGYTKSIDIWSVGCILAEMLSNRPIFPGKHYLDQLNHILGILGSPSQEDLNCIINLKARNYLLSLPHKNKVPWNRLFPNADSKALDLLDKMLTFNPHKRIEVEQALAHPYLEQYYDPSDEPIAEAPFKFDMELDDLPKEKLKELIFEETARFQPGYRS
- Measurement Protocol: ITC; Affinity ITC (TA-Instruments), reversed mode: ERK2 protein (90-145 µM) in the cell, peptide (500 µM) in the syringe; 30 °C; 20 mM Hepes pH 7.5, 0.15 M NaCl, 0.5 mM TCEP; single binding site model
- Applied Conditions: both partners purified

{"columns": ["Binder", "Kd [µM]"],
 "data": [
  ["GIMLRRLQKGNLPVRAL (Solubilised in 5% DMSO and diluted in buffer; also called KIM of DUSP6; KIM peptide DUSP6; source: synthetic peptide, bought: GenScript) [Kinase Interaction Motif (KIM) peptide of DUSP6]", 14.4]
]}

Each recorded value in this set is attributed to paper PMC10252016.
